Listed binders paired with reported H292 pIGF-IR IC50 (ELISA)
Assay target: IGF-IR on human tumour cells (H292, MCF-7, RH41) (human, UniProt P08069 31-1367)
Assay info: cell-based or functional assay
Give the number; nM is assumed, so skip it.

Past entries and their recorded results:
Binder	Quantity unit	H292 pIGF-IR IC50 (ELISA)
E3-GS10-I1, non-pegylated (designed binder) VSDVPRDLEVVAATPTSLLISWLPGKLRYQYYRITYGETGGNSPVQEFTVPHDLRTATISGLKPGVDYTITVYAVTNMMHVEYSEYPISINYRTEIDKGSGSGSGSGSGSGSGSGSGSVSDVPRDLEVVAATPTSLLISWSARLKVARYYRITYGETGGNSPVQEFTVPKNVYTATISGLKPGVDYTITVYAVTRFRDYQPISINYRTEIDKPSQ	nM	6
E1-GS10-I1 pegylated, His-tagged (designed binder, 40 kDa branched PEG on the Cys of the C-terminal Cys tail, also called E1-GS10-I1 (with PEG)) MGVSDVPRDLEVVAATPTSLLISWVAGAEDYQYYRITYGETGGNSPVQEFTVPHDLVTATISGLKPGVDYTITVYAVTDMMHVEYTEHPISINYRTEIDKGSGSGSGSGSGSGSGSGSGSVSDVPRDLEVVAATPTSLLISWSARLKVARYYRITYGETGGNSPVQEFTVPKNVYTATISGLKPGVDYTITVYAVTRFRDYQPISINYRTEIDKPCQHHHHHH	nM	4
E3-GS10-I1 pegylated, His-tagged (designed binder, 40 kDa branched PEG on the Cys of the C-terminal Cys tail, also called E3-GS10-I1-Cys (with his)) MGVSDVPRDLEVVAATPTSLLISWLPGKLRYQYYRITYGETGGNSPVQEFTVPHDLRTATISGLKPGVDYTITVYAVTNMMHVEYSEYPISINYRTEIDKGSGSGSGSGSGSGSGSGSGSVSDVPRDLEVVAATPTSLLISWSARLKVARYYRITYGETGGNSPVQEFTVPKNVYTATISGLKPGVDYTITVYAVTRFRDYQPISINYRTEIDKPCQHHHHHH	nM	6

Value of H292 pIGF-IR IC50 (ELISA) reported for the binder E1-GS10-I1, His-tagged, non-pegylated (designed binder, bispecific EGFR/IGF-IR tandem of two 10Fn3 domains) MGVSDVPRDLEVVAATPTSLLISWVAGAEDYQYYRITYGETGGNSPVQEFTVPHDLVTATISGLKPGVDYTITVYAVTDMMHVEYTEHPISINYRTEIDKGSGSGSGSGSGSGSGSGSGSVSDVPRDLEVVAATPTSLLISWSARLKVARYYRITYGETGGNSPVQEFTVPKNVYTATISGLKPGVDYTITVYAVTRFRDYQPISINYRTEIDKPSQHHHHHH is 1
